Test: Apparent half-life of the terminal disposition phase in Sprague-Dawley rat at 2 mg/kg, iv administered as single dose by UPLC/MS/MS analysis
Type: ADME, organism-based
Details: in vivo, read-out: t1/2 lambda z (converted)
property-measured: half-life (h)
Use h as the unit, but write only the number.

Query: Consider the compound "C=CCc1cc(/C=C/C(=O)c2cccc(N(C)C)c2)c(OC)cc1O" and give its recorded half-life.
Response: 21.1

---

Assay: Tmax in Sprague-Dawley rat at 20 mg/kg, ig administered as single dose by UPLC/MS/MS analysis
Type: ADME, organism-based
Conditions: in vivo, po
property-measured: Tmax

Query: Consider the compound "C=CCc1cc(/C=C/C(=O)c2cccc(N(C)C)c2)c(OC)cc1O" and give its recorded Tmax.
Response: 14 h

---

Molecular target: Tyrosine-protein phosphatase non-receptor type 1 (Homo sapiens)
Sequence (P18031 whole entry): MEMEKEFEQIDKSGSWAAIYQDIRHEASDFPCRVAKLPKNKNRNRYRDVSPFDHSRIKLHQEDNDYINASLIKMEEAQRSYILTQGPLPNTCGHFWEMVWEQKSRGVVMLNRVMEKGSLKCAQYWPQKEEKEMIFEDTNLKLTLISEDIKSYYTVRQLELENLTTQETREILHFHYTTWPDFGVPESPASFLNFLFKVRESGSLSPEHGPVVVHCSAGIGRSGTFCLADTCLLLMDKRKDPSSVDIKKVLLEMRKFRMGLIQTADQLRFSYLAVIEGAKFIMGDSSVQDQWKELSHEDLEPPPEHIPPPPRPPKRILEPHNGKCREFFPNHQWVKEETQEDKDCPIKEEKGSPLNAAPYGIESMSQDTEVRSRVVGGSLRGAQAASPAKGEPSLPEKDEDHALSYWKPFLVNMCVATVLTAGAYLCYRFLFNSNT
Experiment: Inhibition of recombinant human PTP1B using pNPP as substrate measured after 30 mins
Conditions: read-out: IC50
pIC50: −log10 of the molar value.
Classify by measured pIC50: label 1 if it is equal to or exceeds 5, label 0 if it is smaller.

Worked examples follow.
| molecule | assigned-class |
| --- | --- |
| C=CCc1cc(/C=C/C(=O)c2ccc(OC(=O)c3ccc(C(C)(C)C)cc3)cc2)c(OC)cc1O | label 1 |
| C=CCc1cc(/C=C/C(=O)c2ccc(-n3cccn3)cc2)c(OC)cc1O | label 1 |
| C=C(C)[C@H](C)c1cc(/C=C/C(=O)c2ccc(O)cc2)c(OC)cc1O [LICOCHALCONE E] | label 1 |
| C=CCc1cc(/C=C/C(=O)c2cccc(N(CC=C)CC=C)c2)c(OC)cc1O | label 1 |
| C=CCc1cc(/C=C/C(=O)c2ccc(OC)cc2O)c(OC)cc1O | label 0 |

Query: pIC50 >= 5 for "C=CCOc1ccc(C(=O)/C=C/c2cc(CC=C)c(O)cc2OC)cc1" ?
Response: label 1

Query: pIC50 >= 5 for "C=CCc1cc(/C=C/C(=O)c2ccc(OCC=C(C)C)cc2O)c(OC)cc1O" ?
Response: label 1

Query: pIC50 >= 5 for "C=CCc1cc(/C=C/C(=O)c2ccc(OCCCCC(=O)OCC)cc2)c(OC)cc1O" ?
Response: label 1

Query: pIC50 >= 5 for "C=CCOc1ccc(C(=O)/C=C/c2cc(CC=C)c(O)cc2OC)c(OC)c1" ?
Response: label 1

---

Biological target: Tyrosine-protein phosphatase non-receptor type 1 (Homo sapiens) (UniProt P18031)
Sequence (P18031 whole entry): as above
Assay: Inhibition of recombinant human PTP1B using pNPP as substrate measured after 30 mins
property-measured: inhibition

Worked cases, answers included:
| molecule | assay-result |
| --- | --- |
| C=CCc1cc(/C=C/C(=O)c2ccc(OC)cc2O)c(OC)cc1O | Dose-dependent effect |
| C=CCc1cc(/C=C/C(=O)c2cccc(OC)c2)c(OC)cc1O | Dose-dependent effect |
| C=CCOc1ccc(C(=O)/C=C/c2cc(CC=C)c(O)cc2OC)c(OC)c1 | Dose-dependent effect |
| C=CCc1cc(/C=C/C(=O)c2ccc(OC(=O)c3ccc(C(C)(C)C)cc3)cc2)c(OC)cc1O | Dose-dependent effect |
| C=CCc1cc(/C=C/C(=O)c2ccc(OC)c(CC=C(C)C)c2)c(OC)cc1O | Dose-dependent effect |
| C=CCc1cc(/C=C/C(=O)c2ccc(N(C)C)cc2)c(OC)cc1O | Dose-dependent effect |
| C=CCc1cc(/C=C/C(=O)c2cc3c(cc2N(C)C)OCO3)c(OC)cc1O | Dose-dependent effect |
| C=CCc1cc(/C=C/C(=O)c2ccc(-n3cccn3)cc2)c(OC)cc1O | Dose-dependent effect |
| C=CCOc1ccc(C(=O)/C=C/c2cc(CC=C)c(O)cc2OC)cc1 | Dose-dependent effect |
| C=CCc1cc(/C=C/C(=O)c2ccc(OCC(=O)O)cc2)c(OC)cc1O | Dose-dependent effect |

Query: Consider the molecule "C=CC(C)(C)c1cc(/C=C/C(=O)c2ccc(O)cc2)c(OC)cc1O" and give its recorded inhibition.
Response: Dose-dependent effect

Query: Consider the molecule "C=CCc1cc(/C=C/C(=O)c2ccc(OC)cc2)c(OC)cc1O" and give its recorded inhibition.
Response: Dose-dependent effect

Query: Consider the molecule "C=CCc1cc(/C=C/C(=O)c2ccccc2N2CCCCC2)c(OC)cc1O" and give its recorded inhibition.
Response: Dose-dependent effect

Query: Consider the molecule "C=CCc1cc(/C=C/C(=O)c2ccc(OCC=C(C)C)cc2)c(OC)cc1O" and give its recorded inhibition.
Response: Dose-dependent effect

Query: Consider the molecule "C=CCc1cc(/C=C/C(=O)c2cccc(N3CCCCC3)c2)c(OC)cc1O" and give its recorded inhibition.
Response: Dose-dependent effect

Query: Consider the molecule "C=CCc1cc(/C=C/C(=O)c2ccc(N3CCCCC3)cc2)c(OC)cc1O" and give its recorded inhibition.
Response: Dose-dependent effect

Query: Consider the molecule "C=CCc1cc(/C=C/C(=O)c2ccc(OCC(=O)OCC)cc2)c(OC)cc1O" and give its recorded inhibition.
Response: Dose-dependent effect

Query: Consider the molecule "C=CCc1cc(/C=C/C(=O)c2ccc(OCC=C(C)C)cc2O)c(OC)cc1O" and give its recorded inhibition.
Response: Dose-dependent effect

---

Test: Tmax in Sprague-Dawley rat at 2 mg/kg, iv administered as single dose by UPLC/MS/MS analysis
Format: ADME, organism-based
Conditions: in vivo
property-measured: Tmax (min)
Use min as the unit, but write only the number.

Query: Consider the compound "C=CCc1cc(/C=C/C(=O)c2cccc(N(C)C)c2)c(OC)cc1O" and give its recorded Tmax.
Response: 4.8

---

Molecular target: UniProt P18031
Experiment: Inhibition of recombinant human PTP1B using pNPP as substrate measured after 30 mins
Conditions: read-out: IC50
property-measured: IC50 (µM)
Use µM as the unit, but write only the number.

Worked cases, answers included:
| compound | IC50, µM |
| --- | --- |
| C=CCc1cc(/C=C/C(=O)c2cc3c(cc2N(C)C)OCO3)c(OC)cc1O | 11.8 |
| C=CCc1cc(/C=C/C(=O)c2ccc(OCC(=O)OCC)cc2)c(OC)cc1O | 9.4 |
| C=CCc1cc(/C=C/C(=O)c2ccc(N3CCOCC3)cc2)c(OC)cc1O | 12.3 |
| C=CCc1cc(/C=C/C(=O)c2ccc(OC)c(CC=C)c2)c(OC)cc1O | 10.9 |
| C=CCc1cc(/C=C/C(=O)c2ccc(OCCCC(=O)O)cc2)c(OC)cc1O | 32.8 |

Query: Specify IC50 for "C=CCc1cc(/C=C/C(=O)c2cccc(N(C)C)c2)c(OCc2ccccc2)cc1O" , system UniProt P18031.
Response: 5

---

Target: Tyrosine-protein phosphatase non-receptor type 1 (Homo sapiens)
Assay: Inhibition of recombinant human PTP1B using pNPP as substrate measured after 30 mins
Conditions: read-out: IC50
Please respond with Satisfied when measured IC50 is strictly beneath 7 µM, and with Not satisfied in all other cases.

| molecule | target-or-test-system | assigned-class |
| --- | --- | --- |
| C=CCc1cc(/C=C/C(=O)c2ccc(O)cc2)c(OC)cc1OC1CCCCO1 (configuration not stated) | Tyrosine-protein phosphatase non-receptor type 1 (Homo sapiens) | Not satisfied |
| C=CCc1cc(/C=C/C(=O)c2ccc(OC(=O)c3ccc(Br)cc3)cc2)c(OC)cc1O | Tyrosine-protein phosphatase non-receptor type 1 (Homo sapiens) | Satisfied |
| C=CCc1cc(/C=C/C(=O)c2ccc(O)cc2)c(OC)cc1O | Tyrosine-protein phosphatase non-receptor type 1 (Homo sapiens) | Not satisfied |

Query: Determine whether this molecule shows IC50 lower than 7 µM (ties excluded): "C=CCc1cc(/C=C/C(=O)c2ccc(N(CC=C)CC=C)cc2)c(OC)cc1O"
Response: Satisfied

Query: Determine whether this molecule shows IC50 lower than 7 µM (ties excluded): "C=CCc1cc(/C=C/C(=O)c2ccc(OCCCC(=O)OCC)cc2)c(OC)cc1O"
Response: Not satisfied

Query: Determine whether this molecule shows IC50 lower than 7 µM (ties excluded): "C=CCc1cc(/C=C/C(=O)c2ccc(OC(=O)c3ccccc3)cc2)c(OC)cc1O"
Response: Satisfied

Query: Determine whether this molecule shows IC50 lower than 7 µM (ties excluded): "C=CCc1cc(/C=C/C(=O)c2cccc(OC)c2)c(OC)cc1O"
Response: Not satisfied

Query: Determine whether this molecule shows IC50 lower than 7 µM (ties excluded): "C=CCc1cc(/C=C/C(=O)c2ccc(OCC)cc2)c(OC)cc1O"
Response: Satisfied

Query: Determine whether this molecule shows IC50 lower than 7 µM (ties excluded): "C=CCc1cc(/C=C/C(=O)c2ccc(OCC=C(C)C)cc2)c(OC)cc1O"
Response: Satisfied

Query: Determine whether this molecule shows IC50 lower than 7 µM (ties excluded): "C=CCc1cc(/C=C/C(=O)c2ccccc2N(C)C)c(OC)cc1O"
Response: Not satisfied

Query: Determine whether this molecule shows IC50 lower than 7 µM (ties excluded): "C=CCc1cc(/C=C/C(=O)c2ccc(OCC(=O)O)cc2)c(OC)cc1O"
Response: Not satisfied

Query: Determine whether this molecule shows IC50 lower than 7 µM (ties excluded): "C=CCc1cc(/C=C/C(=O)c2ccc(OCCCCC(=O)O)cc2)c(OC)cc1O"
Response: Satisfied
